Tested on: K4 kissing-loop RNA reporter
Assay: apparent KD of K4 kissing-loop reporter; higher = weaker reporter binding
Conditions: Eterna round: R107; input ligand: none
Below, each entry is listed with its recorded apparent KD of K4 kissing-loop reporter.
Provide the reading as a plain figure in nM.

Please review the entries below; each comes with its answer.
ACAUUAGGCACGGCCGCCACUGGAUUAAGAUCUUAAGUAUUAAUUAACAUGAGUGAUGUUCAUGCCAGGACCGGGUGACUACCAU [KL-SSTryp-B11] ... 261
GCGGCGGGCCAAGGAUAUAUAUUGGAGUGAUGUUGUUCAUUUAUUUGAGCUAGUGAUGUUGGUCAGAUAGAAGGUGGCCCGCCGC [whbob_Ex_FMNB__2th216] ... 51.1

[Q] // map GGUAGCAUGGCGGCCGCCACUUUUACUGGAUCGGAAACGAUCCAGUAUUGUGUAGUGAUGUUACAAAGGACCGGGCCAUGCUACC to recorded apparent KD of K4 kissing-loop reporter (system: K4 kissing-loop RNA reporter);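 further: bound reporter read as fluorescence of individual clusters on recovered sequencing chips by microscopy, with normalized cluster intensities fitted with a binding model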
[A] 180
